Where do these numbers come from? They come from PubChem BioAssay (EPA / NIEHS).

targetUnderTest: human CYP2C9, CYP2C9 (gene 1559)
assayInfo: NVS_ADME_hCYP2C9: NovaScreen (NVS) CYP450-related Enzyme Activity (ADME) Assay for human CYP2C9 (AID 2283108)
Inconclusive results are not listed. Activity calls are given as the source filed them. The calls were made as follows: active = hit-call score of the fitted dose curve at least 0.9, where 1 is the maximum; inconclusive = response in the unintended direction; inactive = score below 0.9.
Parameter call: string, one of T = active, F = inactive

Answered cases to consult:
• CCOP(=S)(OCC)SCn1c(=O)oc2cc(Cl)ccc21 = T
• N#Cc1nn(-c2c(Cl)cc(C(F)(F)F)cc2Cl)c(N)c1S(=O)C(F)(F)F (stereo unspecified) = T
• C#CCOS(=O)OC1CCCCC1Oc1ccc(C(C)(C)C)cc1 (stereo unspecified) = F

Asked: // param item: `COc1nc(C)nc(NC(=O)NS(=O)(=O)c2ccccc2CCC(F)(F)F)n1` ; yields the recorded call
Given back: F

Asked: // param item: `CS/C(C)=N/OC(=O)N(C)SN(C)C(=O)O/N=C(\C)SC` ; yields the recorded call
Given back: T
